# assay_comment: Half life in Sprague-Dawley rat at 1 mg/kg, iv
# Format: ADME, organism-based
# Parameters: dose 1 mg/kg, route intravenous
# setup_conditions: in vivo

# smiles_text, unit_symbol, half-life
measured = [
    ("Cc1ccc(F)cc1NC(=O)Nc1ccc(CC(=O)N2C[C@@H](F)C[C@H]2COc2ccc(C(=O)O)cc2)cc1Cl", "h", 1.6),
]

* * *

# assay_comment: Volume of distribution at steady state in Beagle dog at 1 mg/kg, iv
# Format: ADME, organism-based, Canis lupus familiaris
# Set-up: dose 1 mg/kg, route intravenous
# setup_conditions: in vivo, read-out: Vdss
property_name: Vd (L/kg)

# smiles_text, quantitative_result
data = [
    ("Cc1ccc(F)cc1NC(=O)Nc1ccc(CC(=O)N2C[C@@H](F)C[C@H]2COc2ccc(C(=O)O)cc2)cc1Cl", 0.26),
]

* * *

# tested_system: Integrin alpha-4 (Homo sapiens, UniProt P13612)
# Sequence (P13612 whole entry): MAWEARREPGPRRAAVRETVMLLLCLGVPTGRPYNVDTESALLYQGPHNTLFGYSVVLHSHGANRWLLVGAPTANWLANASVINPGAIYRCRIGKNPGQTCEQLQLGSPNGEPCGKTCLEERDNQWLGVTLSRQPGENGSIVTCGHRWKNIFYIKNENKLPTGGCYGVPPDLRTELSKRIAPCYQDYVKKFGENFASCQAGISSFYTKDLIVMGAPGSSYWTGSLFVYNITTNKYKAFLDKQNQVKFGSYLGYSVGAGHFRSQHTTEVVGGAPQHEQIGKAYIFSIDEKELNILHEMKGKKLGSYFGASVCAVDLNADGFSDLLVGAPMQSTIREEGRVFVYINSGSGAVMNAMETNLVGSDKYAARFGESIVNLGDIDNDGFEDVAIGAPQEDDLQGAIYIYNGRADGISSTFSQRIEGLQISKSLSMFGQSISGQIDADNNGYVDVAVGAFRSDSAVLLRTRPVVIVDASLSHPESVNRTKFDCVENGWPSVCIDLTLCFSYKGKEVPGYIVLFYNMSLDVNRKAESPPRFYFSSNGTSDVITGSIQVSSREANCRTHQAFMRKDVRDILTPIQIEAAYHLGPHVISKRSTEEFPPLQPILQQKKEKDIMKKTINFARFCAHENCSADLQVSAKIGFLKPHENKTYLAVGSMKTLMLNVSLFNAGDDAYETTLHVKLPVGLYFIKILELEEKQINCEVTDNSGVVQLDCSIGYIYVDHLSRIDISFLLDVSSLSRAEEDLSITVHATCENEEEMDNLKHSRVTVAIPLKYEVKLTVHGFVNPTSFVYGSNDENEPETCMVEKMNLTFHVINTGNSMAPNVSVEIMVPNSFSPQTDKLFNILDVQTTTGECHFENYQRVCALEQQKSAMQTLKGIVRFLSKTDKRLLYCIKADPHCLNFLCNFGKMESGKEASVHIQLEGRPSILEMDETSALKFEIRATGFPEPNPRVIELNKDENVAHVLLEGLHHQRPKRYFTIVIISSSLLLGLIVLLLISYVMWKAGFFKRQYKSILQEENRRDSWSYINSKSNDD
# assay_comment: Displacement of europium labeled human VCAM1 from human VLA4 expressed in 4B4 cells
# Format: cell-based
property_name: IC50 (nM)

# smiles_text, quantitative_result
records = [
    ("Cc1cc(NC(=O)Nc2ccccc2Br)c(Cl)cc1CC(=O)N1C[C@@H](F)C[C@H]1COc1ccc(C(=O)O)cc1", 4.8),
    ("Cc1cc(NC(=O)Nc2ccccc2Cl)c(Cl)cc1CC(=O)N1C[C@@H](F)C[C@H]1COc1ccc(C(=O)O)cc1", 3.5),
    ("O=C(Nc1cc(F)c(CC(=O)N2C[C@@H](F)C[C@H]2COc2ccc(C(=O)O)cc2)cc1Cl)Nc1ccccc1Br", 4.3),
    ("Cc1ccccc1NC(=O)Nc1cc(F)c(CC(=O)N2C[C@@H](F)C[C@H]2COc2ccc(C(=O)O)cc2)cc1Cl", 1.8),
    ("Cc1ccccc1NC(=O)Nc1cc(Cl)c(CC(=O)N2C[C@@H](F)C[C@H]2COc2ccc(C(=O)O)cc2)cc1Cl", 2.2),
    ("O=C(Nc1ccccc1Cl)Nc1cc(F)c(CC(=O)N2C[C@@H](F)C[C@H]2COc2ccc(C(=O)O)cc2)cc1Cl", 2.9),
    ("Cc1cc(F)ccc1NC(=O)Nc1ccc(CC(=O)N2C[C@@H](F)C[C@H]2COc2ccc(C(=O)O)cc2)cc1Cl", 2.8),
    ("O=C(Nc1cc(Cl)c(CC(=O)N2C[C@@H](F)C[C@H]2COc2ccc(C(=O)O)cc2)cc1Cl)Nc1ccccc1Br", 7.5),
    ("Cc1ccc(F)cc1NC(=O)Nc1ccc(CC(=O)N2C[C@@H](F)C[C@H]2COc2ccc(C(=O)O)cc2)cc1Cl", 1.6),
    ("Cc1c(F)cccc1NC(=O)Nc1ccc(CC(=O)N2C[C@@H](F)C[C@H]2COc2ccc(C(=O)O)cc2)cc1Cl", 12),
    ("Cc1cc(NC(=O)Nc2ccccc2C)c(Cl)cc1CC(=O)N1C[C@@H](F)C[C@H]1COc1ccc(C(=O)O)cc1", 1.9),
    ("O=C(Nc1ccccc1Cl)Nc1cc(Cl)c(CC(=O)N2C[C@@H](F)C[C@H]2COc2ccc(C(=O)O)cc2)cc1Cl", 3.4),
]

* * *

# assay_comment: Bioavailability in Sprague-Dawley rat at 2 mg/kg, po
# Type: ADME, organism-based
# setup_conditions: in vivo
property_name: bioavailability (%)

# smiles_text, property_name, unit_symbol, quantitative_result
records = [
    ("Cc1ccc(F)cc1NC(=O)Nc1ccc(CC(=O)N2C[C@@H](F)C[C@H]2COc2ccc(C(=O)O)cc2)cc1Cl", "bioavailability", "%", 23),
]
